What AIRE transcriptional activation functional score was measured for each of the following?
B1: library; numbered along this chain (parent)
chain: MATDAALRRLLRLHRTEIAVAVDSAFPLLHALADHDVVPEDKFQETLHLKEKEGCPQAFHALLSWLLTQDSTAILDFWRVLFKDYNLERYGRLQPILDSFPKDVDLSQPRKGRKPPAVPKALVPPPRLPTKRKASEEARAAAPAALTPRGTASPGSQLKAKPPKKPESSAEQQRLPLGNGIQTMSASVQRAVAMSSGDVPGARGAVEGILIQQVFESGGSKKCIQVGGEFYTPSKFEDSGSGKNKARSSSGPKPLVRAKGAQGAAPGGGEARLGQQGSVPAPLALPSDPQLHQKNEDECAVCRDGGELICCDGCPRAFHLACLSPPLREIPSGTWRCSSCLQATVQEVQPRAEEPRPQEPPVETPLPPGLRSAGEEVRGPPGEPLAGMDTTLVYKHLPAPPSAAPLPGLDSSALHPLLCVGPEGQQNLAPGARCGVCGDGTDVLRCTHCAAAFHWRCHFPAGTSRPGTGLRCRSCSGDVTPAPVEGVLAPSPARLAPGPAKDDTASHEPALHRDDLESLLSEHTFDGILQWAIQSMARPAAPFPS

# Variants of: B1
# assay-info: AIRE transcriptional activation functional score (insulin promoter-GFP; nonsense median 0, synonymous median 1) (normalised score); higher = higher AIRE activity (more reporter activation)
# condition-context: with insulin promoter-GFP reporter in HEK293
Respond using a number only.

Exam item: Reported AIRE transcriptional activation functional score for P350W : what is it?
Marked response: 1.02

Exam item: What value of AIRE transcriptional activation functional score has been reported for the following variant? P350V
Marked response: 1.01

Exam item: Consider the variant shown here: D105V What is its recorded AIRE transcriptional activation functional score?
Marked response: 0.6

Exam item: Find the recorded AIRE transcriptional activation functional score belonging to N295C and report it.
Marked response: 1.01
